Consider the following molecules and their measured T/C readings.
- Test system: L1210 leukemia ip in BDF1 mice, survival T/C
- PROCEDURE_SUMMARY: NCI In Vivo Anticancer Drug Screen. Data for tumor model L1210 Leukemia (intraperitoneal) in B6D2F1 (BDF1) mice
- MEASUREMENT_CONTEXT: endpoint: mean survival time; dose: 50.0 mg/kg/injection; schedule: Q01DX001 (ip); vehicle: saline; higher = longer survival
Toxic doses and inconclusive results are not listed. Square brackets hold non-standard residues; d marks the D form. Peptide text beside a SMILES is read from it. ξ: configuration not given here. ξF = NC(Cc1ccccc1)C(=O)O

CN(C)C=Nc1ccc(Cl)cc1	100 % of control
CC(C)CC(=O)/C(CC(C)C)=N/O	96 % of control
CCCCCCCCCCCCCCCCCCNC(=O)NNC(=O)CCCC(=O)NNC(=O)NCCCCCCCCCCCCCCCCCC	91 % of control
Nc1nc(-c2ccccc2)c(CCCNc2ccc(C(=O)NC(CCC(=O)O)C(=O)O)cc2)c(=O)[nH]1 (configuration not stated)	98 % of control
C[C@H](N)C(=O)N[C@@H]1[C@H]2C(=C(O)C[C@@H](O)[C@@H]2O)C(=O)O[C@@H]1C	105 % of control
O=C(O)C(=O)C(Cl)Br (configuration not stated)	111 % of control
N#Cc1ccccc1CC(O)(c1ccccc1)c1ccccc1	96 % of control
CN1C(=O)C(Br)=C(Br)C1(O)c1cccnc1 (configuration not stated)	104 % of control
CCOC(=O)c1c(O)cc(C)[nH]c1=O	102 % of control
CN1CC(C)(C)C(=O)N1	100 % of control

Please fill in: T/C reported for NCC(=O)NC(Cc1ccccc1)C(=O)O (configuration not stated) (H-Gly-[ξF]-OH) = 110 % of control

Please fill in: T/C reported for "CCNS(=O)(=O)O" = 104 % of control

---

Consider the following compounds and their measured T/C readings.
- System: L1210 leukemia ip in BDF1 mice, survival T/C
- PROCEDURE_SUMMARY: NCI In Vivo Anticancer Drug Screen. Data for tumor model L1210 Leukemia (intraperitoneal) in B6D2F1 (BDF1) mice
- MEASUREMENT_CONTEXT: endpoint: mean survival time; dose: 150.0 mg/kg/injection; schedule: Q01DX001 (ip); vehicle: carboxymethylcellulose (CMC); higher = longer survival
Inconclusive results and toxic doses are left out.

CCN(CC)CCC(O)c1ccc2c(c1)[nH]c1ccccc12 (stereo unspecified)	103 % of control
c1ccc(C2C(c3ccccc3)C(c3ccccc3)C2c2ccccc2)cc1 (stereo unspecified)	94 % of control
CCOC(=O)C=C1CCP(C)CC1 (stereo unspecified)	94 % of control
CCCCNC(=O)Nc1ncn[nH]1	104 % of control
OC1CC2(Cl)C(Cl)=C(Cl)C1(Cl)C2(Cl)Cl (stereo unspecified)	95 % of control

Now consider the entry below.
Please fill in: T/C reported for "OCc1nc2cc3nc(CO)[nH]c3cc2[nH]1" = 101 % of control

---

Consider the following molecules and their measured T/C readings.
- Test system: L1210 leukemia ip in BDF1 mice, survival T/C
- PROCEDURE_SUMMARY: NCI In Vivo Anticancer Drug Screen. Data for tumor model L1210 Leukemia (intraperitoneal) in B6D2F1 (BDF1) mice
- MEASUREMENT_CONTEXT: endpoint: mean survival time; dose: 100.0 mg/kg/injection; schedule: Q01DX005 (ip); vehicle: saline; higher = longer survival
Toxic doses and inconclusive results are not listed.

N/C(=N\O)c1c(N)ncn1C1OC(CO)C(O)C1O (configuration not stated)	97 % of control
Nc1ccn(C2OC(CO)C(O)C2O)c(=NCC(=O)O)n1 (configuration not stated)	120 % of control
O=S(Cc1ncc2cnccn12)c1ccccc1 (configuration not stated)	104 % of control
Nc1c(-c2ncc[nH]2)ncn1C1OC(CO)C(O)C1O (configuration not stated)	94 % of control
O=c1cnn(C2OC(CO)C(O)C2O)c(=S)[nH]1 (configuration not stated)	113 % of control
COc1c2c(c(OC)c3ccccc13)C(=O)c1ccccc1C2=O	91 % of control

Now consider the entry below.
Please fill in: T/C reported for CSc1ncnc2c1ncn2C1OC(COC(N)=O)C(O)C1O (configuration not stated) = 107 % of control
